molecules and their reported main peak Area% kept in buffer for 1 month
Experiment: Long term stability in buffer with 2.5% DMSO (LC-MS)
Format: physicochemical
Conditions: 20 mM KPO4, 0.1 mM ZnCl2, pH 7.0 + 2.5% DMSO; LC-MS 254 nm
Text: Reagents, reactants, solvents and drying agents for synthesis, work-up and purification were purchased from commercial vendors (Sigma-Aldrich, VWR, Merck, Fluorochem, Thermo Fisher Scientific, Solveco), and if not stated otherwise they were used without further purification. […]
MEASUREMENT_LABEL: main peak Area% kept in buffer for 1 month (%)

MOLECULE	EXPERIMENTAL_RESULT
O=C(NC(c1ccccc1O)P(=O)(O)O)c1cccs1 (stereo not drawn) [5a]	95.67
O=C(NC(c1ccccc1O)P(=O)(O)O)c1csc2c1CCCC2 (stereo not drawn) [5f]	95.90
O=C(NC(c1ccccc1O)P(=O)(O)O)c1cc2c(s1)CCCC2 (stereo not drawn) [5e]	98.87
O=C(NC(c1ccccc1O)P(=O)(O)O)c1scc2c1CCCC2 (stereo not drawn) [5g]	98.05
O=C(NC(c1ccccc1O)P(=O)(O)O)c1csc2ccccc12 (stereo not drawn) [5d]	97.15
O=C(Cc1cccs1)NC(c1ccccc1O)P(=O)(O)O (stereo not drawn) [5i]	97.58
O=C(NC(c1ccccc1O)P(=O)(O)O)c1ccsc1 (stereo not drawn) [5b]	95.03
O=C(NC(c1ccccc1O)P(=O)(O)O)c1ccccc1 (stereo not drawn) [5h]	95.39
O=C(NC(c1ccccc1O)P(=O)(O)O)c1cc2ccccc2s1 (stereo not drawn) [5c]	97.59
O=C(Cc1csc2ccccc12)NC(c1ccccc1O)P(=O)(O)O (stereo not drawn) [5l]	98.10
O=C(Cc1ccsc1)NC(c1ccccc1O)P(=O)(O)O (stereo not drawn) [5j]	96.88
O=C(Cc1cc2ccccc2s1)NC(c1ccccc1O)P(=O)(O)O (stereo not drawn) [5k]	98.27

====

Biological target: VIM-2 (Escherichia coli, UniProt Q5U7L7)
Test: Enzyme steady state kinetic studies (inhibitor 5g and VIM-2)
Type: biochemical
Conditions: Ki, [I] 36 μM, nitrocefin
MEASUREMENT_LABEL: Ki (µM)

MOLECULE	MEASUREMENT_UNITS	EXPERIMENTAL_RESULT
O=C(NC(c1ccccc1O)P(=O)(O)O)c1scc2c1CCCC2 (stereo not shown) [5g]	µM	31.3

====

Target: VIM-2 (Escherichia coli)
Experiment: Enzymatic metallo-β-lactamase assay on purified VIM-2
Assay type: biochemical
Settings: purified enzyme 1 nM, nitrocefin 15 μM, pH 7.2, 25 °C
pIC50: −log10 of the molar value.

COMPOUND	pIC50
O=C(NC(c1ccccc1O)P(=O)(O)O)c1ccccc1 (stereo not drawn)	4.26
O=C(NC(c1ccccc1O)P(=O)(O)O)c1csc2ccccc12 (stereo not drawn)	4.68
O=C(NC(c1ccccc1O)P(=O)(O)O)c1scc2c1CCCC2 (stereo not drawn)	4.92
O=C(Cc1cc2ccccc2s1)NC(c1ccccc1O)P(=O)(O)O (stereo not drawn)	4.29
O=C(NC(c1ccccc1O)P(=O)(O)O)c1csc2c1CCCC2 (stereo not drawn)	4.32
O=C(NC(c1ccccc1O)P(=O)(O)O)c1cccs1 (stereo not drawn)	4.15

====

Target: GIM-1 (Pseudomonas aeruginosa, UniProt Q704V1)
Sequence (Q704V1 entry or part of it): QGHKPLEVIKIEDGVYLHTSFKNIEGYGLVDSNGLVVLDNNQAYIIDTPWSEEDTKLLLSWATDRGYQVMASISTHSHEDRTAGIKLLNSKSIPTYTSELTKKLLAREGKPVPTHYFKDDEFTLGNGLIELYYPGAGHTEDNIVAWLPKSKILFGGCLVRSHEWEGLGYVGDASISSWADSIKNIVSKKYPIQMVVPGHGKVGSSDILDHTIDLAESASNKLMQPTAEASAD
Test: Enzymatic metallo-β-lactamase assay on purified GIM-1
Details: purified enzyme 1 nM, nitrocefin 2 μM, pH 7.2, 25 °C
pIC50: −log10 of the molar value.
Each entry gets false if its pIC50 stays under 4, and true if its pIC50 is 4 or above.

MOLECULE	LABEL_CLASS
O=C(NC(c1ccccc1O)P(=O)(O)O)c1ccccc1 (centres unmarked)	true
O=C(NC(c1ccccc1O)P(=O)(O)O)c1cccs1 (centres unmarked)	true
O=C(NC(c1ccccc1O)P(=O)(O)O)c1scc2c1CCCC2 (centres unmarked)	true
O=C(NC(c1ccccc1O)P(=O)(O)O)c1csc2c1CCCC2 (centres unmarked)	true
O=C(Cc1cccs1)NC(c1ccccc1O)P(=O)(O)O (centres unmarked)	false
